# Target entity: UniProt Q15084
# Sequence (Q15084 whole entry): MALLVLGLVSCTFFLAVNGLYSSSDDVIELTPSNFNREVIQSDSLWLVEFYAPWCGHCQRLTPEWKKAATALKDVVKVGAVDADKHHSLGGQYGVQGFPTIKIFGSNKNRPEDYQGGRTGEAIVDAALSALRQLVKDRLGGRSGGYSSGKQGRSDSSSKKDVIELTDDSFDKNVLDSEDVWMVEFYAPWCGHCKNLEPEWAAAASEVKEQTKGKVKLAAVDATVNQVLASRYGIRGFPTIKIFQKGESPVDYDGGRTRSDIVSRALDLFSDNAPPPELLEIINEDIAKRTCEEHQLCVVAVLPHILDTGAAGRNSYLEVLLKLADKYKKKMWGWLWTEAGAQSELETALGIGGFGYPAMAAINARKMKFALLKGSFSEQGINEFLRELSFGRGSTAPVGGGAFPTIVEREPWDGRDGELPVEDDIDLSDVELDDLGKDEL
# Assay details: Inhibition of recombinant PDIA6 (unknown origin) preincubated for 1 hrs followed by bovine insulin addition and measured after 80 mins by absorbance based reductase assay
Property: IC50 (µM)
Please give a number only; it is taken to be in µM.

Any idea what IC50 came out for "C=C(C(=O)Nc1ccc(C(=O)c2ccccc2)cc1)C(F)(F)F" on UniProt Q15084? 7.1

###

# Target entity: Protein disulfide-isomerase A3 (Homo sapiens, UniProt P30101)
# Sequence (P30101 whole entry): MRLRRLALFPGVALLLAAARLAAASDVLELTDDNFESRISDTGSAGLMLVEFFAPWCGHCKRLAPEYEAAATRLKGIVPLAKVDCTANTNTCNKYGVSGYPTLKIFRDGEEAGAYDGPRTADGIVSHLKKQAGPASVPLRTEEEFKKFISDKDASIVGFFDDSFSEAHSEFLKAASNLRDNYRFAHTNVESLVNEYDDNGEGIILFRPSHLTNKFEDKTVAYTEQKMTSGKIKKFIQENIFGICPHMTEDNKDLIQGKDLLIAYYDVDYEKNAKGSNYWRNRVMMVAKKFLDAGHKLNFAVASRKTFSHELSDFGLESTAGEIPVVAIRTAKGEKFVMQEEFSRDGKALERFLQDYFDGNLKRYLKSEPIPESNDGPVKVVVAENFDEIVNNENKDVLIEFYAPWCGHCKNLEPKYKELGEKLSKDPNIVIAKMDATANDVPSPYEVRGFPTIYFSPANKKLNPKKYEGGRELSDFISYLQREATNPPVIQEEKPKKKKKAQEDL
# Assay details: Inhibition of recombinant PDIA3 (unknown origin) preincubated for 1 hrs followed by bovine insulin addition and measured after 80 mins by absorbance based reductase assay
Property: IC50 (µM)

I. C=C(C(=O)Nc1ccc(C(=O)c2ccccc2)cc1)C(F)(F)F
II. C#CC(=O)N(c1ccc(OC)c(OC)c1)C(C(=O)NCC(=O)OCC)c1cccs1 (configuration not stated)
From the recorded data, which exceeds the other in IC50: I or II ? To answer, give the label that identifies your chosen option. II

###

# Target entity: Protein disulfide-isomerase (Homo sapiens, UniProt P07237)
# Sequence (P07237 whole entry): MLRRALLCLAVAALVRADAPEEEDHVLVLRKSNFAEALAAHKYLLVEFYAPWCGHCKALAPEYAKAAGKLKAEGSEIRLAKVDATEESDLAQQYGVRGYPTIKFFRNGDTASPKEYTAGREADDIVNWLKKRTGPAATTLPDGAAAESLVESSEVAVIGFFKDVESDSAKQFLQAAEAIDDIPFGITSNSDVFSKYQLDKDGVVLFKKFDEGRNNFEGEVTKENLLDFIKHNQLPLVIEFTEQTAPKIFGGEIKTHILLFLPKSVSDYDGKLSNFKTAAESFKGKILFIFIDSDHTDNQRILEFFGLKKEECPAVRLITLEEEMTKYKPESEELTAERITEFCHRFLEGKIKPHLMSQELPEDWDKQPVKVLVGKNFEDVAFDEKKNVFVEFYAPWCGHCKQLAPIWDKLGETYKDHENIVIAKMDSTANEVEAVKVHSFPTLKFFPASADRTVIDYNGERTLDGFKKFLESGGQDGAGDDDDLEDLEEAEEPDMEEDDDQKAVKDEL
# Assay details: Inhibition of recombinant PDI (unknown origin) preincubated for 1 hrs followed by bovine insulin addition and measured after 80 mins by absorbance based reductase assay
pIC50: −log10 of the molar value.
Property: pIC50

Use the examples below as a reference point.
| Structure notation | Reported |
| --- | --- |
| C=CC(=O)Nc1cc(OC)c(OC)cc1C(=O)OC | < 4.40 |
| COC(=O)c1cc(OC)c(OC)cc1NC(=O)CCl | < 4.40 |

In the following, a different compound is considered.
Any idea what pIC50 came out for "C=C(F)C(=O)Nc1cc(OC)c(OC)cc1C(=O)OC" on Protein disulfide-isomerase (Homo sapiens, UniProt P07237)? < 4.40

Data origin: ChEMBL document CHEMBL6074718
